- test-details: Pharmacokinetic studies in Beagle dogs after oral administration of SNAC-based tablets
- Assay type: in vivo
- measurement-setup: male, Beagle, dog, in vivo, po, T½ (hr)
Starred links: 1 amine or outer side, 2 acyl side, 3 side chain; linkers in the order of their positions; H or OH if unused. Non-standard residues stand in square brackets, D forms with d. Groups on a side chain read outwards from the residue. *: point of attachment. C20 diacid = O=C(O)CCCCCCCCCCCCCCCCCCC(=O)*; γGlu = O=C(O)[C@H](CCC(=O)[*:2])N[*:1]; εLys = N[C@@H](CCCCN[*:1])C(=O)[*:2]; Trx = NC[C@H]1CC[C@H](C(=O)O)CC1; AEEA = NCCOCCOCC(=O)O; Aib = CC(C)(N)C(=O)O
observed-property: half-life (h)
Give bare numbers, in h.

substance | half-life (h)
H-H[Aib]EGTFTSDVSSYLEEQAARK([AEEA-AEEA-γGlu-C20 diacid])FIAWLVRGGASELSTAALGRLSAELHELATLPRTETGSGSP-NH2 [Compound 0580] | 39
H-H[Aib]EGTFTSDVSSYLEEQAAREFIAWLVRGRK([εLys-AEEA-AEEA-γGlu-C20 diacid])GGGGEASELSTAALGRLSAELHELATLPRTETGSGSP-NH2 [Compound 0552] | 52

half-life in this record for H-H[Aib]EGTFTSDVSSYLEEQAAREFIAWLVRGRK([AEEA-AEEA-γGlu-Trx-C20 diacid])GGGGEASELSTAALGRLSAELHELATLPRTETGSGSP-NH2 [Compound 0120] : 24
